Provenance of the data: patent US20220411381A1

The reader will find reported pIC50 values listed item by item below.
Target: recombinant human BCAT2 enzyme (Homo sapiens, UniProt O15382)
Construct: purchased ATGen (South Korea) ATGP1523
Sequence (O15382 28-392): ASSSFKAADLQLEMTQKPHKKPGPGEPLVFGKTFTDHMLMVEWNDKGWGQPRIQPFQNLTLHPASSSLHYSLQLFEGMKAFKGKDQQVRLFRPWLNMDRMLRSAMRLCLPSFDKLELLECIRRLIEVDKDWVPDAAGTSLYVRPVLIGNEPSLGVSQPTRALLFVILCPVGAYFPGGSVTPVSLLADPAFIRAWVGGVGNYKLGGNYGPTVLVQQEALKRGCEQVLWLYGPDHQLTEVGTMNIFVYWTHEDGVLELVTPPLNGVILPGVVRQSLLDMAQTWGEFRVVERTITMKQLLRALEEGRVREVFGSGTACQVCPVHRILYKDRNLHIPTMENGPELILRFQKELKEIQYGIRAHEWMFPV
Test: In vitro assay 1b: BCAT2 biochemical assay (coupled LeuDH/NADH fluorescence readout); further: recombinant human BCAT2 0.75 nM
Settings: recombinant human BCAT2 […], 32° C., 100 μM leucine, 50 μM α-ketoglutarate, NADH fluorescence over 90 min; read-out: BCAT2 IC50
The meaning of pIC50 here: minus log10 of the concentration in molar units.

Q) Give me measured pIC50, please, for this molecule: Cc1ccccc1Oc1cc(-n2c(=O)cc(C(F)(F)F)[nH]c2=O)c(Br)cc1C#N (racemic) [Example 18]
A) 5.59

Q) Give me measured pIC50, please, for this molecule: COc1cc(C#N)c(Oc2ccccc2C)cc1-n1c(=O)cc(-c2ccccc2)[nH]c1=O (racemic) [Example 42]
A) 5.00

Q) Give me measured pIC50, please, for this molecule: Cc1ccccc1Oc1cc(-n2c(=O)cc(C(F)(F)F)[nH]c2=O)c(Cl)cc1C#N (racemic) [Example 11]
A) 5.70

====

System: MDA-MB231 cells
Experiment: In vitro assay 2: BCAT cellular assay, leucine in medium of MDA-MB231 cells
Format: cell-based
Settings: Homo sapiens, MDA-MB-231, 24 h, 24 hours incubation, leucine level in medium (LeuDH/diaphorase/resazurin readout), read-out: MDAMB-231 IC50
The reader will find reported pIC50 values listed item by item below.
The meaning of pIC50 here: minus log10 of the concentration in molar units.

Recorded pIC50, per entry:
>  <molecule>
COc1cc(C#N)c(Oc2ccccc2C)cc1-n1c(=O)cc(C2CC2)[nH]c1=O (racemic) [Example 23]

>  <pIC50>
4.52

$$$$
>  <molecule>
Cc1ccccc1Oc1cc(-n2c(=O)cc(C(F)(F)Cl)[nH]c2=O)c(F)cc1C#N [Example 40]

>  <pIC50>
4.92

$$$$
>  <molecule>
Cc1ccccc1Oc1cc(-n2c(=O)cc(C(F)(F)C(F)(F)F)[nH]c2=O)c(F)cc1C#N [Example 52]

>  <pIC50>
4.52

$$$$
>  <molecule>
Cc1ccccc1Oc1cc(-n2c(=O)cc(C(F)(F)F)[nH]c2=O)c(C)cc1C#N (racemic) [Example 7]

>  <pIC50>
4.52

$$$$
>  <molecule>
Cc1cccc(C)c1Oc1cc(-n2c(=O)cc(C(F)(F)F)[nH]c2=O)ccc1C#N [Example 48]

>  <pIC50>
4.60

$$$$

Q) Give me measured pIC50, please, for this molecule: Cc1cc(C#N)c(Oc2ccccc2Cl)cc1-n1c(=O)cc(C(F)(F)F)[nH]c1=O (racemic) [Example 10]
A) 4.52

====

The reader will find reported pIC50 values listed item by item below.
Target: recombinant human BCAT2 enzyme (Homo sapiens, UniProt O15382)
Construct: purchased ATGen (South Korea) ATGP1523
Assay: In vitro assay 1b: BCAT2 biochemical assay (coupled LeuDH/NADH fluorescence readout); further: recombinant human BCAT2 0.75 nM
Conditions: recombinant human BCAT2 […], 32° C., 100 μM leucine, 50 μM α-ketoglutarate, NADH fluorescence over 90 min; read-out: BCAT2 IC50
The meaning of pIC50 here: minus log10 of the concentration in molar units.

>  <compound>
Cc1ccccc1Oc1cc(-n2c(=O)cc(C(F)(F)F)[nH]c2=O)c(Cl)cc1C#N (single isomer, unassigned) [Example 13]

>  <pIC50>
5.70

$$$$
>  <compound>
COc1cc(C#N)c(Oc2ccccc2C)cc1-n1c(=O)cc(Br)[nH]c1=O (single isomer, unassigned) [Example 20]

>  <pIC50>
4.64

$$$$
>  <compound>
COc1cc(C#N)c(Oc2ccccc2C)cc1-n1c(=O)cc(S(=O)(=O)c2ccccc2)[nH]c1=O (racemic) [Example 76]

>  <pIC50>
6.34

$$$$
>  <compound>
Cc1cc(C#N)c(Oc2ccccc2Cl)cc1-n1c(=O)cc(C(F)(F)F)[nH]c1=O (racemic) [Example 10]

>  <pIC50>
5.22

$$$$
>  <compound>
COc1cc(C#N)c(Oc2ccccc2Cl)cc1-n1c(=O)cc(C(F)(F)F)[nH]c1=O (racemic) [Example 15]

>  <pIC50>
6.08

$$$$
>  <compound>
Cc1ccccc1Oc1cc(-n2c(=O)cc(C(F)(F)Cl)[nH]c2=O)c(Cl)cc1C#N (racemic) [Example 26]

>  <pIC50>
5.66

$$$$
>  <compound>
Cc1cccc(N)c1Oc1cc(-n2c(=O)cc(C(F)(F)F)[nH]c2=O)c(F)cc1C#N [Example 65]

>  <pIC50>
5.26

$$$$
>  <compound>
N#Cc1ccc(-n2c(=O)cc(C(F)(F)F)[nH]c2=O)cc1Oc1ccccc1Cl [Example 46]

>  <pIC50>
5.22

$$$$
>  <compound>
COc1cc(Cl)c(Oc2ccccc2Cl)cc1-n1c(=O)cc(C(F)(F)F)[nH]c1=O (racemic) [Example 50]

>  <pIC50>
5.30

$$$$
>  <compound>
Cc1ccccc1Oc1cc(-n2c(=O)cc(C(F)(F)F)[nH]c2=O)cnc1C#N [Example 47]

>  <pIC50>
5.49

$$$$

Q) Give me measured pIC50, please, for this compound: COc1cc(Cl)c(Oc2ccccc2C)cc1-n1c(=O)cc(C(F)F)[nH]c1=O (racemic) [Example 28]
A) 5.46

Q) Give me measured pIC50, please, for this compound: Cc1cccc(C)c1Oc1cc(-n2c(=O)cc(C(F)(F)c3ccccc3)[nH]c2=O)c(F)cc1C#N [Example 57]
A) 5.30

Q) Give me measured pIC50, please, for this compound: COc1cc(C#N)c(Oc2ccccc2C)cc1-n1c(=O)cc(C(F)(F)c2ccccc2)[nH]c1=O (racemic) [Example 24]
A) 6.22

====

Molecular target: recombinant human BCAT2 enzyme (Homo sapiens, UniProt O15382)
Construct: purchased ATGen (South Korea) ATGP1523
Experiment: In vitro assay 1b: BCAT2 biochemical assay (coupled LeuDH/NADH fluorescence readout); further: recombinant human BCAT2 0.75 nM
Settings: recombinant human BCAT2 […], 32° C., 100 μM leucine, 50 μM α-ketoglutarate, NADH fluorescence over 90 min; read-out: BCAT2 IC50
quantity-measured: IC50 (µM)
Number in µM, nothing else.

Recorded IC50, per entry:
>  <compound>
Cc1ccccc1Oc1cc(-n2c(=O)cc(Br)[nH]c2=O)c(F)cc1C#N

>  <target-entity>
recombinant human BCAT2 enzyme (Homo sapiens, UniProt O15382)

>  <IC50, µM>
5.5

$$$$
>  <compound>
COc1cc(C#N)c(Oc2ccccc2C)cc1-n1c(=O)cc(C(N)=O)[nH]c1=O (racemic)

>  <target-entity>
recombinant human BCAT2 enzyme (Homo sapiens, UniProt O15382)

>  <IC50, µM>
5.9

$$$$
>  <compound>
Cc1ccccc1Oc1cc(-n2c(=O)cc(C3CC3)[nH]c2=O)c(F)cc1C#N

>  <target-entity>
recombinant human BCAT2 enzyme (Homo sapiens, UniProt O15382)

>  <IC50, µM>
25

$$$$
>  <compound>
Cc1cccc(C)c1Oc1cc(-n2c(=O)cc(C(F)(F)F)[nH]c2=O)ccc1C#N

>  <target-entity>
recombinant human BCAT2 enzyme (Homo sapiens, UniProt O15382)

>  <IC50, µM>
4.15

$$$$
>  <compound>
Cc1ccccc1Oc1cc(-n2c(=O)cc(C(F)(F)Cl)[nH]c2=O)c(F)cc1C#N

>  <target-entity>
recombinant human BCAT2 enzyme (Homo sapiens, UniProt O15382)

>  <IC50, µM>
2.2

$$$$

Q) Give me measured IC50, please, for this compound: COc1cc(C#N)c(Oc2ccccc2C)cc1-n1c(=O)cc(Br)[nH]c1=O (single isomer, unassigned) [Example 21]
A) 3
